endpoint.label: melting point

>>> result("CCN(CC)CCNC(=O)c1ccc(S(N)(=O)=O)cc1")
"174 to 176 °C"
>>> result("O=C(c1ccc(Cl)cc1Cl)N1CCC(=NO)c2ccc(Cl)cc21")
"231 to 232 °C"
>>> result("CN1CCC2(C#N)C(C1)C1CN(C)C2C=C1C(=O)c1ccccc1 (centres undefined)")
"120 to 139 °C"
>>> result("CC1=C(C(C)O)C(C)(C)CCC1=NO (centres undefined)")
"131 to 135 °C"
>>> result("Cc1nc2c(OCc3c(Cl)ccc(S(=O)(=O)N4CCC[C@H]4C(=O)NCCCN)c3Cl)cccn2c1Br")
"75 °C"
>>> result("CCOC(=O)CCC1CCCC2CCC(=O)NC21 (centres undefined)")
"45 to 50 °C"
>>> result("COC(=O)Cc1cccc(CNC(=O)C2Cc3ccccc3N2S(=O)(=O)c2ccc(-c3cccc(C(F)(F)F)c3)cc2)c1 (centres undefined)")
"60 °C"
>>> result("c1cn2nc(N3CCNCC3)ccc2n1")
"122 to 123 °C"
>>> result("O=C1CC(c2ccccc2Cl)Cc2nccc(Cl)c21 (centres undefined)")
"130 to 131 °C"
>>> result("C=Cn1nc(-c2c(-c3ccccc3)nn3ccccc23)ccc1=O")
"188 °C"

Prompt: Supply reported melting point belonging to this compound: NS(=O)(=O)c1ccccc1C1CCOC1=O (centres undefined)
Response: 141 to 146 °C

Prompt: Please report the measured melting point for "Cc1oc(-c2ccccc2)nc1COc1ccc(CCc2oc(-c3ccccc3)nc2CCC(=O)O)cc1"
Response: 110 to 111 °C

Prompt: // Input: "CCCCCCCCCCCCCCCCCCS(=O)(=O)c1cc(C(=O)O)c2c(c1)c(=O)on2C" . Output its melting point only.
Response: 177 to 179 °C

Prompt: Check the records and state melting point for "COc1cc(N)c(Cl)cc1C(=O)NCC1CCN(CCS(=O)(=O)CCc2ccccc2)CC1"
Response: 161 to 162 °C

Prompt: Indicate its recorded melting point; the compound in question is "[N-]=[N+]=NCc1nc2ccccc2n1Cc1ccc(Cl)c(Cl)c1"
Response: 78 to 80 °C

Prompt: # return recorded melting point for input O=C(Cc1ccc(Oc2ccccc2)cc1)NC1(C(=O)O)Cc2ccc(-c3ccc(Cl)cc3)cc2C1 (centres undefined)
Response: 227 to 228 °C

Prompt: Retrieve melting point measured for "CCCn1nc(C(C)C)c(C(=O)OCOC(C)=O)c1Cc1ccc(-c2ccccc2-c2nnn(C(c3ccccc3)(c3ccccc3)c3ccccc3)n2)cc1" and print it.
Response: 124 to 128 °C

Prompt: Give the value of melting point reported for the following: "Cc1cc(Br)cc(-c2ccc3c(c2)C(C)(C)OC(=O)N3)c1"
Response: 231 to 233 °C

Prompt: Tell me its melting point given "O=C(COc1ccccc1)NCCO[N+](=O)[O-]" as the entry.
Response: 61 to 62 °C

Prompt: Respond only with melting point recorded for "Cc1ccc2oc(=O)n(-c3ccnc(NC(=O)NCc4ccccn4)c3)c2c1"
Response: 205 to 206 °C

Prompt: Provide only the value of recorded melting point for COc1ccc(N2CCN(c3c(C)c(C)c4c(c3C)C(c3ccc(OC(F)(F)F)cc3)C(C)(C)O4)CC2)cc1 (centres undefined)
Response: 147 to 148 °C

Prompt: Input "CCOC(=O)c1cc2nc(C(F)(F)F)ccc2n1Cc1ccncc1" , output reported melting point.
Response: 130 to 131 °C

Prompt: Provide one value: measured melting point of "CCOC(=O)[C@H](CC(C)C)NC(=O)C[C@@H]1CN(CC(C)(C)CO)c2ccc(Cl)cc2[C@@H](c2cccc(OC)c2OC)O1"
Response: 148 to 149 °C

Prompt: Please list melting point recorded for the compound "Cc1nc(-n2ccc(OCCC3CC3)cc2=O)sc1C(=O)NCc1cccnc1"
Response: 170 to 172 °C

Prompt: Let me know recorded melting point for "CCCOc1ccc(OC)cc1-c1ncc(C(N)=O)c(=O)[nH]1" , thanks.
Response: 206 to 207 °C

Value source: a melting point compilation (Tetko et al.; mined from patent text by program, amines drawn as free bases though some values may be those of a salt)
